Attribution: patent US20250289789A1

target: CDK4-NanoLuc fusion with CCND1 in 293T or 293 cells (Homo sapiens); construct: host or cells: 293T (ATCC CRL-3216) or 293 (ATCC CRL-1573); experiment: NanoBRET Target Engagement (TE) Intracellular Kinase Assay, CDK4/CCND1; assay type: cell-based; settings: NanoBRET TE intracellular kinase assay, 2-hour incubation, read-out: NanoBRET-CDK4/D1 IC50
Sequence (P11802 whole entry, the tested form may be a part): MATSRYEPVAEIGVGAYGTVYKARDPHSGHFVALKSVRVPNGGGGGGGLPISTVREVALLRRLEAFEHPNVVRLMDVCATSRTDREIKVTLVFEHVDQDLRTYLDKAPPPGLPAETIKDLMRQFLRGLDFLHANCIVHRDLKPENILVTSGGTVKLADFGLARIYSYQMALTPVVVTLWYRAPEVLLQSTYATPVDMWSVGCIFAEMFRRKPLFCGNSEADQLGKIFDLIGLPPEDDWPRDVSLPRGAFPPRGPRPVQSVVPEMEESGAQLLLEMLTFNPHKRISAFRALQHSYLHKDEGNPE
Sequence (P24385 whole entry partner, the tested form may be a part): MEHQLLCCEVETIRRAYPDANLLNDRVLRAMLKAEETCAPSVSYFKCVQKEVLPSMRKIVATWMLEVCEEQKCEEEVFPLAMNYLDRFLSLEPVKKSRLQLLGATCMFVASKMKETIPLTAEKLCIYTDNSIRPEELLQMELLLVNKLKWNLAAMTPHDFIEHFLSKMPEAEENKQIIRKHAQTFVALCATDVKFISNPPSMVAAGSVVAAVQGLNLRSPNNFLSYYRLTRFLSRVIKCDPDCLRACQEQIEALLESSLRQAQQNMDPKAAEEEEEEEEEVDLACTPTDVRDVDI
pIC50: −log10 of the molar value.
observation type: pIC50

Request: Can you share its pIC50? I mean this compound: CC(C)NC(=O)O[C@@H]1CC[C@H](c2cc(NC(=O)COc3cc(Cl)cc(O)c3C=O)n[nH]2)C1 [Compound 73]
Response: < 5.00

---
Request: Can you share its pIC50? I mean this compound: COc1cc(O)c(C=O)c(OCC(=O)Nc2cc([C@H]3CC[C@@H](OC(=O)N4CCCN4C)C3)[nH]n2)c1 [Compound 278]
Response: < 5.00

Request: Can you share its pIC50? I mean this compound: O=Cc1c(O)cccc1OCC(=O)Nc1cc([C@H]2CC[C@@H](OC(=O)N3CCCC3)C2)[nH]n1 [Compound 85]
Response: < 5.00

---

target: CDK2-NanoLuc fusion with CCNE1 in 293T or 293 cells (Homo sapiens); construct: host or cells: 293T (ATCC CRL-3216) or 293 (ATCC CRL-1573); experiment: NanoBRET Target Engagement (TE) Intracellular Kinase Assay, CDK2/CCNE1; type: cell-based; conditions: NanoBRET TE intracellular kinase assay, 2-hour incubation, read-out: NanoBRET-CDK2/E1 IC50
pIC50: −log10 of the molar value.
observation type: pIC50

Some solved entries appear below for comparison.
Request: Can you share its pIC50? I mean this compound: COc1cc(O)c(C=O)c(Oc2ccnc(Nc3cc([C@H]4CC[C@@H](OC(=O)NC(C)C)C4)[nH]n3)c2)c1
Response: 8.30

Request: Can you share its pIC50? I mean this compound: COc1cc(OC)c(C=O)c(OCC(=O)Nc2cc([C@H]3C[C@@H](OC(=O)N4CCC4(C)C)C3)[nH]n2)c1
Response: 8.73

Request: Can you share its pIC50? I mean this compound: COc1cc(O)c(C=O)c(OCC(=O)Nc2cc([C@H]3CC[C@@H](OC(=O)N4CC5CC4C5)C3)[nH]n2)c1
Response: 8.64

Request: Can you share its pIC50? I mean this compound: COc1cc(O)c(C=O)c(OCC(=O)Nc2cc([C@H]3CC[C@@H](OC(=O)N4CCCC45CC5)C3)[nH]n2)c1
Response: 8.66

Request: Can you share its pIC50? I mean this compound: COc1cc(O)c(C=O)c(OCC(=O)Nc2cc([C@H]3CC[C@@H](OC(=O)NCc4ccccc4)C3)[nH]n2)c1
Response: 8.51

Request: Can you share its pIC50? I mean this compound: COc1cc(O)c(C=O)c(OCC(=O)Nc2cc([C@H]3C[C@@H](OC(=O)NC(C)C)C3)[nH]n2)c1 [Compound 223]
Response: 8.38

Request: Can you share its pIC50? I mean this compound: CC(C)NC(=O)O[C@@H]1CC[C@H](c2cc(NC(=O)c3ccc(O)c(C=O)c3)n[nH]2)C1
Response: 8.02

Request: Can you share its pIC50? I mean this compound: COc1cc(O)c(C=O)c(OCC(=O)Nc2cc([C@H]3CC[C@@H](OC(=O)N[C@H]4C[C@@H](C)C4)C3)[nH]n2)c1
Response: 8.64

Request: Can you share its pIC50? I mean this compound: COc1cc(O)c(C=O)c(OCC(=O)Nc2cc([C@H]3CC[C@@H](OC(=O)NCC(F)F)C3)[nH]n2)c1
Response: 8.42

Request: Can you share its pIC50? I mean this compound: CC(C)NC(=O)O[C@@H]1CC[C@H](c2cc(NC(=O)CCc3ccc(O)c(C=O)c3)n[nH]2)C1
Response: 7.90

1 = COc1cc(O)c(C=O)c(OCC(=O)Nc2cc([C@H]3CC[C@@H](OC(=O)N4CC(F)(F)C4)C3)[nH]n2)c1
2 = COc1cc(O)c(C=O)c(OCC(=O)Nc2cc([C@H]3CC[C@@H](OC(=O)N(O)C(C)C)C3)[nH]n2)c1
3 = CC(C)NC(=O)O[C@@H]1CC[C@H](c2cc(NC(=O)COc3cccc(Cl)c3C=O)n[nH]2)C1
4 = CC(C)NC(=O)O[C@@H]1CC[C@H](c2cc(NC(=O)N3CC=C(c4cccc(O)c4C=O)C3)n[nH]2)C1
5 = CC(C)NC(=O)O[C@@H]1CC[C@H](c2cc(NC(=O)c3cc(-c4cccc(O)c4C=O)n(C)n3)n[nH]2)C1
Request: Order the entries by their reported pIC50, beginning at the minimum. Form field (ranking): labels in requested order.
Response: 5, 4, 3, 2, 1
(5: 7.49, 4: 7.78, 3: 8.06, 2: 8.40, 1: 8.71)
